- SYSTEM_TESTED: full-length human CSF-1R receptor (Homo sapiens)
- Construct: transfected with the full-length human CSF-1R receptor cloned in house; expressed in transfected cells; host or cells: HEK293H (Invitrogen Cat. #11631017)
- Sequence (P07333 20-972): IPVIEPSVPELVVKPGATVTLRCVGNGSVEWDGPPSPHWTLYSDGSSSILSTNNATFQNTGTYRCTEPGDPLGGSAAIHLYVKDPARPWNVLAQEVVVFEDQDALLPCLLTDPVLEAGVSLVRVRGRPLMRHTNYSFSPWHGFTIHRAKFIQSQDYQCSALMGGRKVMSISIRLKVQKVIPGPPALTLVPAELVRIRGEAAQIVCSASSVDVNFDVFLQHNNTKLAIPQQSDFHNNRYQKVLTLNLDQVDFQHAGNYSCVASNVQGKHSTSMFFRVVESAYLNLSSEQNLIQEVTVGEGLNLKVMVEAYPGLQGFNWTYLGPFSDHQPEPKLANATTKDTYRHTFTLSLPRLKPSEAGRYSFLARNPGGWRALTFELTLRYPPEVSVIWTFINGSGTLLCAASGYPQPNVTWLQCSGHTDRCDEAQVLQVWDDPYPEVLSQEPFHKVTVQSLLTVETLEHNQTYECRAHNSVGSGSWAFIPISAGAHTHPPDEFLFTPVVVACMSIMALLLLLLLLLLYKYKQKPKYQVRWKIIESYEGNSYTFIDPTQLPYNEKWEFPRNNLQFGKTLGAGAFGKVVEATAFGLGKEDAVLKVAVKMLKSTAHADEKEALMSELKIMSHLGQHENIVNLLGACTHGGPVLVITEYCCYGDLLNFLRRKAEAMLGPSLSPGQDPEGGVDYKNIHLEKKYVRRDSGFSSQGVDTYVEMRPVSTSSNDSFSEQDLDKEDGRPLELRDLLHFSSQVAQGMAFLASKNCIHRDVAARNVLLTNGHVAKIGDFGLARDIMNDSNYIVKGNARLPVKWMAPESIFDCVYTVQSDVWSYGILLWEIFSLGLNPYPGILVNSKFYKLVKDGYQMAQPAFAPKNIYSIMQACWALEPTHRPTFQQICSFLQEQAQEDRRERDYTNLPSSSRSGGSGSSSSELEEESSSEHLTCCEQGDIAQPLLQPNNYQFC
- PROTOCOL_NOTES: In vitro inhibition of CSF-1R receptor tyrosine phosphorylation in transfected HEK293H cells
- Type: cell-based
- EXPERIMENTAL_CONTEXT: HEK293-H, tested at about 1 μM, 50 ng/mL MCSF, read-out: PCSF1R percent inhibition
Classification field: enter label 1 for inhibition at 1 µM values not below 90%, label 0 for values below it.

O[C@@H]1CCCC[C@H]1Nc1nc2ccc(Oc3cncc(-c4ccc(F)cc4)c3)cc2s1 [Compound 64]	label 1
Cn1cncc1-c1cncc(Oc2ccc3nc(N[C@@H]4CCCC[C@H]4O)sc3c2)c1 [Compound 68]	label 1
O[C@@H]1CCCC[C@H]1Nc1nc2ccc(Oc3ccnc(-c4cccnc4)n3)cc2s1 [Compound 27]	label 0
CN1CCN(c2ccc(-c3cc(Oc4ccc5nc(N[C@@H]6CCCC[C@H]6O)sc5c4)cnc3-c3ccc(N4CCN(C)CC4)nc3)cn2)CC1 [Compound 107]	label 0
O[C@@H]1CCCC[C@H]1Nc1nc2ccc(Oc3cncc(-c4cn[nH]c4)n3)cc2s1 [Compound 92]	label 1
CCCn1cc(-c2cncc(Oc3ccc4nc(N[C@@H]5CCCC[C@H]5O)sc4c3)n2)cn1 [Compound 94]	label 1
O[C@@H]1CCCC[C@H]1Nc1nc2ccc(Oc3cncc(-c4ccncc4)c3)cc2s1 [Compound 60]	label 1
Nc1ncc(-c2cncc(Oc3ccc4nc(N[C@@H]5CCCC[C@H]5O)sc4c3)c2)cn1 [Compound 63]	label 0
Cn1cc(-c2cncc(Oc3ccc4nc(N[C@@H]5CCCC[C@H]5O)sc4c3)n2)cn1 [Compound 93]	label 1
C[C@H](Nc1nc2ccc(Oc3ccnc(-c4cccnc4)n3)cc2s1)C1CCCCC1 [Compound 31]	label 0
CC(C)(C)OC(=O)N1CC=C(c2cncc(Oc3ccc4nc(N[C@@H]5CCCC[C@H]5O)sc4c3)c2)CC1 [Compound 79]	label 1
O[C@@H]1CCCC[C@H]1Nc1nc2ccc(Oc3cncc(Br)c3)cc2s1 [Compound 45]	label 1
CN1CCN(c2ccc(-c3cncc(Oc4ccc5nc(N[C@@H]6CCCC[C@H]6O)sc5c4)n3)cn2)CC1 [Compound 98]	label 1
Cn1nccc1-c1cncc(Oc2ccc3nc(N[C@@H]4CCCC[C@H]4O)sc3c2)c1 [Compound 56]	label 1
O[C@@H]1CCCC[C@H]1Nc1nc2ccc(Oc3cncc(-c4cccnc4)c3)cc2s1 [Compound 57]	label 1
C[C@H](Nc1nc2ccc(Oc3ccnc(-c4ccncc4)n3)cc2s1)C1CCCCC1 [Compound 32]	label 0
Cn1ccnc1-c1cncc(Oc2ccc3nc(N[C@@H]4CCCC[C@H]4O)sc3c2)c1 [Compound 66]	label 1

###

- SYSTEM_TESTED: PDGFRb (Homo sapiens, UniProt P09619)
- Construct: The kinase domain of PDGFRβ was assayed in 50 mM Hepes; purchased Invitrogen P3082
- Sequence (P09619 600-962 limits assumed): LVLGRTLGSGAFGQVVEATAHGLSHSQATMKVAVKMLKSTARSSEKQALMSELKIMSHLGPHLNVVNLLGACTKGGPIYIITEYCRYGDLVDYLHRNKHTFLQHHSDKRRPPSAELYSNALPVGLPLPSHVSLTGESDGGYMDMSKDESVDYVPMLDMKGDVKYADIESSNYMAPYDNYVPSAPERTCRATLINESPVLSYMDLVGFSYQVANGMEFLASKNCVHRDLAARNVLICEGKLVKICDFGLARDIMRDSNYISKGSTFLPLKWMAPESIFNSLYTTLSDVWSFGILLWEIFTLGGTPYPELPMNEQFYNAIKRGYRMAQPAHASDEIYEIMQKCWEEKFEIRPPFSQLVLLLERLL
- PROTOCOL_NOTES: PDGFRb kinase in vitro biochemical assay (alphascreen)
- EXPERIMENTAL_CONTEXT: tested at about 1 μM; read-out: PDGF RK BETA percent inhibition
OUTCOME_MEASURE: inhibition at 1 µM (%)

CC(=O)NCCNc1nccc(Oc2ccc3nc(NCC4CCCCC4)sc3c2)n1	35
O[C@@H]1CCCC[C@H]1Nc1nc2ccc(Oc3cnc(Cl)c(-c4cccnc4)c3)cc2s1	9
CNC(=O)c1cncc(Oc2ccc3nc(N[C@@H](C)C4CCCCC4)sc3c2)n1	14
O[C@@H]1CCCC[C@H]1Nc1nc2ccc(Oc3cncc(C4CC4)c3)cc2s1	8

###

- SYSTEM_TESTED: cKIT (Homo sapiens, UniProt P10721)
- Construct: The kinase domain of cKIT was assayed in 50 mM Hepes; purchased Upstate 14-559
- Sequence (P10721 589-937 limits assumed): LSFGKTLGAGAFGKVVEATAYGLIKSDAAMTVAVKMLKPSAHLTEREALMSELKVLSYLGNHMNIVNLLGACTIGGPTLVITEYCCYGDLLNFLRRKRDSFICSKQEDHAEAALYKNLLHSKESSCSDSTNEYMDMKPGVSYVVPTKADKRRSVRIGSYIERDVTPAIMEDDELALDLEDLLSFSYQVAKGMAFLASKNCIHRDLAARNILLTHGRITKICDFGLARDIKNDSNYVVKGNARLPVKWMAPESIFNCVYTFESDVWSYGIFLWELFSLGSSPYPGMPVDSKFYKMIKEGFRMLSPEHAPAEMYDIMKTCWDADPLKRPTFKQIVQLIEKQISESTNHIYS
- PROTOCOL_NOTES: cKIT kinase in vitro biochemical assay (alphascreen)
- EXPERIMENTAL_CONTEXT: tested at about 1 μM; read-out: CKIT percent inhibition
- Protocol: The IC50 values for the inhibition of RTKs were determined in the alphascreen format measuring the inhibition by compound of phosphate transfer to a substrate by the respective enzyme. […] The kinase domain of cKIT was assayed in 50 mM Hepes, pH=7.5, 5 mM MgCl2, 10 mM MnCl2, 1 mM DTT, 0.1% BSA with 0.06 uM biotinylated peptide substrate (GGLFDDPSYVNVQNL-NH2) and 15 uM ATP (ATP KM apparent=15 uM). […] Both reactions were incubated overnight and read on the Alphascreen reader. […]
OUTCOME_MEASURE: inhibition at 1 µM (%)

CC(=O)NCCNc1nccc(Oc2ccc3nc(NCC4CCCCC4)sc3c2)n1 [Compound 16]	22
N#Cc1ccc(-c2cncc(Oc3ccc4nc(N[C@@H]5CCCC[C@H]5O)sc4c3)c2)cn1 [Compound 73]	44
CCN(CC)CCn1cc(-c2cncc(Oc3ccc4nc(N[C@@H]5CCCC[C@H]5O)sc4c3)c2)cn1 [Compound 81]	56
O[C@@H]1CCCC[C@H]1Nc1nc2ccc(Oc3cncc(-c4cnn(CC(F)F)c4)c3)cc2s1 [Compound 82]	82

###

- SYSTEM_TESTED: cKIT (Homo sapiens)
- Construct: The kinase domain of cKIT was assayed in 50 mM Hepes; purchased Upstate 14-559
- PROTOCOL_NOTES: cKIT kinase in vitro biochemical assay (alphascreen)
- EXPERIMENTAL_CONTEXT: tested at about 1 μM; read-out: CKIT percent inhibition
Outcome: yes (1) for inhibition at 1 µM of at least 30%; no (0) for anything lower.

Nc1ccc(-c2cc(Oc3ccc4nc(N[C@@H]5CCCC[C@H]5O)sc4c3)cnc2-c2ccc(N)nc2)cn1 [Compound 108]	no (0)
O[C@@H]1CCCC[C@H]1Nc1nc2ccc(Oc3ncnc4ccccc34)cc2s1 [Compound 18]	no (0)
O[C@@H]1CCCC[C@H]1Nc1nc2ccc(Oc3cncc(-c4ccc(F)cc4)c3)cc2s1 [Compound 64]	yes (1)
O[C@@H]1CCCC[C@H]1Nc1nc2ccc(Oc3cncc(-c4cccnc4)c3)cc2s1 [Compound 57]	yes (1)
CC(=O)NCCNc1cc(Oc2ccc3nc(NCC4CCCCC4)sc3c2)nc(N)n1 [Compound 14]	no (0)
C[C@H](Nc1nc2ccc(Oc3ccnc(-c4ccc(N)nc4)n3)cc2s1)C1CCCCC1 [Compound 33]	yes (1)
c1nc(Oc2ccc3nc(NCC4CCCCC4)sc3c2)cc(N2CCOCC2)n1 [Compound 11]	no (0)
O[C@@H]1CCCC[C@H]1Nc1nc2ccc(Oc3cncc(-c4ccccn4)c3)cc2s1 [Compound 67]	yes (1)

###

- SYSTEM_TESTED: cytoplasmic domain of the human CSF-1R (Homo sapiens, UniProt P07333)
- Construct: Recombinant protein corresponding to the cytoplasmic domain of the human CSF-1R; purchased Invitrogen Corporation, Carlsbad, Calif; PV3249
- Sequence (P07333 539-972 limits assumed): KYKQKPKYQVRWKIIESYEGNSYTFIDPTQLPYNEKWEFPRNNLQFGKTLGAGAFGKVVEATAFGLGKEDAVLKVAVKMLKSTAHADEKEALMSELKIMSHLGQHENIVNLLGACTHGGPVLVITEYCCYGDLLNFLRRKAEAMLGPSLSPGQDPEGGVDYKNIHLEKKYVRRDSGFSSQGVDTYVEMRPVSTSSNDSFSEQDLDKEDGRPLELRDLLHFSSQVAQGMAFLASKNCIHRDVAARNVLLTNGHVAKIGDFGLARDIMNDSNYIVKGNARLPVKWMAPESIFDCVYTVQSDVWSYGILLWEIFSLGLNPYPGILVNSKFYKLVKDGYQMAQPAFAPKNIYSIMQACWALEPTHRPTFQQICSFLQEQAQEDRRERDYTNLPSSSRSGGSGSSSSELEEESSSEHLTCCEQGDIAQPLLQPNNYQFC
- PROTOCOL_NOTES: In vitro kinase assay for CSF-1R (AlphaScreen)
- Format: biochemical
- EXPERIMENTAL_CONTEXT: tested at about 1 μM; read-out: CSF1RK 1 percent inhibition
- Protocol: The kinase activity of various protein tyrosine kinases can be measured by providing ATP and a suitable peptide or protein tyrosine-containing substrate, and assaying the transfer of phosphate moiety to the tyrosine residue. Recombinant protein corresponding to the cytoplasmic domain of the human CSF-1R was purchased from Invitrogen Corporation, Carlsbad, Calif. U.S.A. (#PV3249). […] The reaction was incubated overnight and read on the Envision (Perkin Elmer). […]
Below is a list of entries, each paired with its recorded inhibition at 1 µM value.
OUTCOME_MEASURE: inhibition at 1 µM (%)

O[C@@H]1CCCC[C@H]1Nc1nc2ccc(Oc3cc(Cl)ncn3)cc2s1 [Compound 5]	41
C[C@H](Nc1nc2ccc(Oc3cncc(-n4cncn4)n3)cc2s1)C1CCCCC1 [Compound 40]	68
O[C@@H]1CCCC[C@H]1Nc1nc2ccc(Oc3cncc(-c4cnn(CCN5CCOCC5)c4)c3)cc2s1 [Compound 59]	100
CNC(=O)c1ccc(Oc2ccc3nc(NCC4CCCCC4)sc3c2)cn1 [Compound 48]	96
Cn1cc(-c2cc(Oc3ccc4nc(NCC5CCCCC5)sc4c3)ncn2)cn1 [Compound 20]	100
Cn1ccnc1-c1cncc(Oc2ccc3nc(N[C@@H]4CCCC[C@H]4O)sc3c2)c1 [Compound 66]	100
CCN(CC)CCn1cc(-c2cncc(Oc3ccc4nc(N[C@@H]5CCCC[C@H]5O)sc4c3)c2)cn1 [Compound 81]	100
O[C@@H]1CCCC[C@H]1Nc1nc2ccc(Oc3ccnc(-c4ccncc4)n3)cc2s1 [Compound 28]	100

###

- SYSTEM_TESTED: cytoplasmic domain of the human CSF-1R (Homo sapiens)
- Construct: Recombinant protein corresponding to the cytoplasmic domain of the human CSF-1R; purchased Invitrogen Corporation, Carlsbad, Calif; PV3249
- PROTOCOL_NOTES: In vitro kinase assay for CSF-1R (AlphaScreen)
- Assay type: biochemical
- EXPERIMENTAL_CONTEXT: tested at about 1 μM; read-out: CSF1RK 1 percent inhibition
Below: a set of entries, each annotated with reported inhibition at 1 µM.
OUTCOME_MEASURE: inhibition at 1 µM (%)

CNC(=O)c1ccc(Oc2ccc3nc(N[C@@H]4CCCC[C@H]4O)sc3c2)cn1	87
C[C@H](Nc1nc2ccc(Oc3ccnc(-c4cnn(C)c4)n3)cc2s1)C1CCCCC1	100
CN1CCN(c2ccc(-c3cncc(Oc4ccc5nc(N[C@@H]6CCCC[C@H]6O)sc5c4)n3)cn2)CC1	100
Nc1cc(Oc2ccc3nc(NCC4CCCCC4)sc3c2)ncn1	100
CNC(=O)c1ccc(Oc2ccc3nc(N[C@@H](C)C4CCCCC4)sc3c2)cn1	98
C[C@H](Nc1nc2ccc(Oc3ccnc(Cl)n3)cc2s1)C1CCCCC1	59
Cn1nccc1-c1cncc(Oc2ccc3nc(N[C@@H]4CCCC[C@H]4O)sc3c2)c1	100
N#Cc1ccc(Oc2ccc3nc(NCC4CCCCC4)sc3c2)cn1	39
